molecular target: human MC3R (human, UniProt P41968 1-323); test: cell-based or functional assay
Sequence (P41968 whole entry): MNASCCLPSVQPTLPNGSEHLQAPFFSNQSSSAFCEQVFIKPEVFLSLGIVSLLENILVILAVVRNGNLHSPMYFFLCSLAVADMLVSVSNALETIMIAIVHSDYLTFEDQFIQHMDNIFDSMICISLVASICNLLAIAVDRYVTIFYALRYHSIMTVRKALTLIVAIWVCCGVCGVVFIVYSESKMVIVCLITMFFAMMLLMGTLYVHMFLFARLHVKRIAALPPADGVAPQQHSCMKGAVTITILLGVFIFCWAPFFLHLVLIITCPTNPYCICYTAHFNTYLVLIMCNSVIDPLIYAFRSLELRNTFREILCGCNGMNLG
Non-standard residues stand in square brackets, D forms with d. NMeK = CN[C@@H](CCCCN)C(=O)O; Nle = CCCC[C@H](N)C(=O)O; Aib = CC(C)(N)C(=O)O
RESULT_TYPE: MC3R selectivity (relative to MC4R)
# print the numeric value only

Here are 2 binders together with their reported answers.
BINDER	MC3R selectivity (relative to MC4R)
Ac-[Nle][Aib]HFR[dW]DRFG-OH (SMILES CCCC[C@H](NC(C)=O)C(=O)NC(C)(C)C(=O)N[C@@H](Cc1c[nH]cn1)C(=O)N[C@@H](Cc1ccccc1)C(=O)N[C@@H](CCCNC(=N)N)C(=O)N[C@H](Cc1c[nH]c2ccccc12)C(=O)N[C@@H](CC(=O)O)C(=O)N[C@@H](CCCNC(=N)N)C(=O)N[C@@H](Cc1ccccc1)C(=O)NCC(=O)O) [CTX-1143]	3540
Ac-[Nle][dA]HFR[dW]GKPV-NH2 (SMILES CCCC[C@H](NC(C)=O)C(=O)N[C@H](C)C(=O)N[C@@H](Cc1c[nH]cn1)C(=O)N[C@@H](Cc1ccccc1)C(=O)N[C@@H](CCCNC(=N)N)C(=O)N[C@H](Cc1c[nH]c2ccccc12)C(=O)NCC(=O)N[C@@H](CCCCN)C(=O)N1CCC[C@H]1C(=O)N[C@H](C(N)=O)C(C)C) [CTX-1164]	83

Attention now turns to another entry.
// field: MC3R selectivity (relative to MC4R); key: Ac-[Nle][dA][NMeK]FR[dW]DRFG-OH (SMILES CCCC[C@H](NC(C)=O)C(=O)N[C@H](C)C(=O)N(C)[C@@H](CCCCN)C(=O)N[C@@H](Cc1ccccc1)C(=O)N[C@@H](CCCNC(=N)N)C(=O)N[C@H](Cc1c[nH]c2ccccc12)C(=O)N[C@@H](CC(=O)O)C(=O)N[C@@H](CCCNC(=N)N)C(=O)N[C@@H](Cc1ccccc1)C(=O)NCC(=O)O) [CTX-1189] ; value = 1
